The entries below come with measured Kd values attached.
- target_or_test_system: T1, Dimeric Monkey Ang-2FD conjugated to human IgG1 (monkey (Macca fascicularis); human)
- T1 construct: also called Monkey Ang-2FD-hFc
- T1 sequence (chain, as listed by the source limits assumed): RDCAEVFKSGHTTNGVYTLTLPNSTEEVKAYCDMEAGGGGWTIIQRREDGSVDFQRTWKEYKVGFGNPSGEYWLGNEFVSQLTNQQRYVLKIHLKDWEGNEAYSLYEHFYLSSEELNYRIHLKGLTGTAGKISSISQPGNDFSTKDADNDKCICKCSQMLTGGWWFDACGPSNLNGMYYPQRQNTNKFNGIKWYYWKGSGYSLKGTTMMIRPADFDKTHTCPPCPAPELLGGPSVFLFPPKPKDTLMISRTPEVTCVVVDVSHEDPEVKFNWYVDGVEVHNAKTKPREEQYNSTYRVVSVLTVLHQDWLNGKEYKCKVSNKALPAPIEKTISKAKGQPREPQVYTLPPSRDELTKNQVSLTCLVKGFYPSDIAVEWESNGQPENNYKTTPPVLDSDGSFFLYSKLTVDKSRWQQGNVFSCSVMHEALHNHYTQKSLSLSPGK
- test_details: SPR, captured Ab, RT
Give the number; nM is assumed, so skip it.

Sample answers from the record:
# binder, unit_string, Kd
measured = [
    ("H1H724N (antibody, V domains shown) VH: QVQLVESGGGVVQPGRSLRLSCAASGFTLSNYGMHWVRQAPGKGLEWVAVIWHDGSNTYYADSVKGRFTISRDNSKNTLYLQMNSLRAEDTAVYYCTREGLDFWSGYYPNWFDPWGQGTLVTVSS VL: DIQMTQSPSSLSASVGDRVTITCRASQGIRNDLGWYQQKPGKAPKRLIYAASNLQGGVPSRFSGSGSGTEFTLTISSLQPEDFAAYYCLQHNIYPLTFGGGTKVEIK", "nM", 0.239),
    ("H1H730N (antibody, V domains shown) VH: EVQLVESGGGLVQPGGSLRLSCAASGFAFRSYWMTWVRQAPGKGLEWVANIQQDGNDKYYVDSVKGRFTISRDNAKNSLYLQMNSLRAEDTAVYYCARDTGIAEAGPFDYWGQGTLVTVSS VL: DIQMTQSPSTLSASVGDRVSITCRASQTIISWLAWYQQKPGKAPRLLIYKASSLESGVPSRFSGSGSGTEFTLTINSLQPDDFATYYCQQYNRYWTFGQGTKVEIK", "nM", 3.4),
]

For the next question, use this binder.
[Q] Looking for the measured Kd of H2M743N (antibody, V domains shown) VH: EVQLLESGGGLVQPGGSLRLSCAASGFTFRKYAMSWVRQAPGKGLEWVSVISVSGGNTYYADSVKGRFTISRDNSKNTLYLQLNSLRAEDTAVYYCAKDLTDIVLMVYVDYWGQGTLVTVSS VL: DIQMTQSPSSVSASVGDRVTITCRASQDIDRWLAWYQQKPGKAPKLLIYAASSLQSGVPSRFSGSGSGTDFTLTISTLQPEDFATYYCQQANSLPFTFGGGTKVEIK , can you help?
[A] 0.234
